Give measured MMP2 production, Experiment 1 (human atrial fibroblasts + TGFB1) for each item. Keep answers brief.
- Tested target: T1, Human IL-11 (human, UniProt P20809 22-199); note: test concentration or dose not given here
- T1 sequence: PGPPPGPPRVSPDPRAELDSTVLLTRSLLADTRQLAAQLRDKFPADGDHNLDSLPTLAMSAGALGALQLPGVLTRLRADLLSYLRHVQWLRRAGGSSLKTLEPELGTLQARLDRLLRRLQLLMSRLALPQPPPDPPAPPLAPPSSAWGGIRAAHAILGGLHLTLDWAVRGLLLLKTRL
- Measurement description: cell-based or functional assay
Quick reminder: number only, in ng/mL, skip the unit.

Return reported MMP2 production, Experiment 1 (human atrial fibroblasts + TGFB1); argument: YU100-H04 (antibody) QVQLVESGGGVVQPGRSLRLSCAASGFTFSSYAMHWVRQAPGKGLEWVAVISYDGSNKYYADSVKGRFTISRDNSKNTLYLQMNSLRAEDTAVYYCARIMGYDYGDYDVVDYWGQGTLVTVSSGSASAPKLEEGEFSEARVQSALTQPASVSGSPGQSITISCTGTSSDIGVYNYVSWYQQHPGKAPKLMIYDVSKRPSGVPDRFSGSKSGNTASLTISGLQAEDEADYYCCSYAGSYTWVFGGGTKLTVL
58.5

Follow-up item: YU100-H11 (antibody) QVQLVQSGGGVVQPGRSLRLSCAASGFTFSSYGMHWVRQAPGKGLEWVAVISYDGSNKYYADSVKGRFTISRDNSKNTLYLQMNSLRAEDTAVYYCAKIGATDPLDYWGQGTLVTVSSGSASAPKLEEGEFSEARVQSALTQPASVSGSPGQSITISCTGTSSDVGGYNYVSWYQQHPGKAPKLMIYDVSNRPSGVSNRFSGSKSGNTASLTISGLQAEDEADYYCCSYAGSYTWVFGGGTKLTVL
53.7

Follow-up item: YU100-H09 (antibody) QVQLVQSGGGVVQPGRSLRLSCAASGFTFSSYAMHWVRQAPGKGLEWVAVISYDGSNKYYADSVKGRFTISRDNSKNTLYLQMNSLRAEDTAVYYCARIMGYDYGDYDVVDYWGQGTLVTVSSGSASAPKLEEGEFSEARVQSALTQPASVSGSPGQSITISCTGTSSDVGGYNYVSWYQQHPGKAPKLMIYDVSNRPSGVSNRFSGSKSGNTASLTISGLQAEDEADYYCCSYAGSYTWVFGGGTKLTVL
52.9

Follow-up item: YU100-H02 (antibody) QVQLQQSGGGVVQPGRSLRLSCAASGFTFSSYGMHWVRQAPGKGLEWVAVISYDGSNKYYADSVKGRFTISRDNSKNTLYLQMNSLRAEDTAVYYCARIMGYDYGDYDVVDYWGQGTLVTVSSGSASAPKLEEGEFSEARVQSALTQPRSVSRSPGQSVTISCTGTSSDVGTYNYVSWYQQHPGKAPKLMIYDVSKRPSGVPDRFSGSKSGNTASLTISGLQAEDEADYYCCSYAGFYTWVFGGGTKLTVL
57.5

Follow-up item: YU100-G08 (antibody, human IgG1, V domains shown, Light chain shuffled human antibody; Only the variable domains are tied to the clone) VH: QVQLVQSGGGVVQPGRSLRLSCAASGFTFSSYGMHWVRQAPGKGLEWVAVISYDGSNKYYADSVKGRFTISRDNSKNTLYLQMNSLRAEDTAVYYCAKIGATDPLDYWGQGTLVTVSS VL: QSALTQPRSVSGSPGQSVTLSCTGTSSDVGGYNYVSWYQHYPGKAPKLMIFDVNERSSGVPDRFSGSKSGNTASLTISGLQAEDEADYYCCSYAGRYTWMFGGGTKVTVLG
42.3
